Source: patent US20050043315A1

observation type: melting point (°C)
Kindly answer with a numeric value in °C, unit omitted.

Worked cases, melting point given:
{"columns": ["compound", "test result"],
 "data": [
  ["CC(C)CCOc1cccc(-c2nc(N)ncc2-c2ccc(=O)n(C(C)C)n2)c1 [Example 205]", 97],
  ["Cc1ccc(-c2nc(N)ncc2-c2ccc(=O)n(C(C)C)n2)cc1 [Example 48]", 224],
  ["CC(C)CCOc1ccccc1-c1nc(N)ncc1-c1ccc(=O)n(C(C)C)n1 [Example 204]", 155],
  ["Cn1nc(-c2cnc(N)nc2-c2ccccc2O)ccc1=O (hydrate or solvate) [Example 224]", 260]
]}

# input Answer with the recorded melting point of Cc1ccc(C(=O)Nc2ncc(-c3ccc(=O)n(C(C)C)n3)c(-c3ccccc3)n2)cc1 [Example 173] only.
# output 116

# input Answer with the recorded melting point of COc1ccc(-c2nc(N)ncc2-c2ccc(=O)[nH]n2)cc1F [Example 29] only.
# output 250

# input Answer with the recorded melting point of CCOc1ccccc1-c1nc(N)ncc1-c1ccc(=O)n(C(C)C)n1 [Example 189] only.
# output 185

# input Answer with the recorded melting point of CC(C)n1nc(-c2cnc(N)nc2-c2cccc(OCCN(C)C)c2)ccc1=O [Example 219] only.
# output 111

----------
Tested on: ddY mice
Assay: Anticatalepsy activity in mouse (haloperidol-induced catalepsy)
Assay type: in vivo
Settings: 3.2 mg/kg orally, ddY mice n=7; haloperidol 0.32 mg/kg i.p. 30 min after compound; measured 30 min after injection
The following molecules are listed with their measured Manifestation rate of catalepsy (number of mouse) values.

Worked cases, Manifestation rate of catalepsy (number of mouse) given:
{"columns": ["item smiles", "test result"],
 "data": [
  ["Nc1ncc(-c2ccc(=O)[nH]n2)c(-c2ccccc2)n1", "4/7"],
  ["CC(=O)Nc1ncc(-c2ccc(=O)n(C(C)C)n2)c(-c2ccccc2)n1", "0/7"],
  ["CC(C)n1nc(-c2cnc(N)nc2-c2ccco2)ccc1=O", "1/7"],
  ["CC(C)n1nc(-c2cnc(NCc3ccccn3)nc2-c2ccccc2)ccc1=O", "0/7"],
  ["CCn1nc(-c2cnc(N)nc2-c2ccccc2)ccc1=O", "0/7"],
  ["CC(C)n1nc(-c2c(F)nc(N)nc2-c2ccccc2)ccc1=O", "0/7"]
]}

# input Answer with the recorded Manifestation rate of catalepsy (number of mouse) of "COCCOc1ccc(-c2nc(N)ncc2-c2ccc(=O)n(C(C)C)n2)cc1" only.
# output 0/7

----------
Consider the cut-off 200 °C. If the recorded melting point is strictly smaller, the label is t; if not, the label is f.

Before answering, review these 6 worked examples.
{"columns": ["molecule", "class assignment"],
 "data": [
  ["Cn1nc(-c2cnc(N)nc2-c2ccc(F)c(F)c2)ccc1=O [Example 66]", "f"],
  ["CC(C)n1nc(-c2cnc(N)nc2-c2ccc(OCCN3CCOCC3)cc2)ccc1=O [Example 220]", "t"],
  ["CC(C)COc1ccc(-c2nc(N)ncc2-c2ccc(=O)n(C(C)C)n2)cc1 [Example 200]", "t"],
  ["COc1ccc(-c2nc(N)ncc2-c2ccc(=O)[nH]n2)cc1OC [Example 37]", "f"],
  ["CNc1ncc(-c2ccc(=O)[nH]n2)c(-c2ccccc2)n1 [Example 8]", "f"],
  ["COc1ccc(-c2nc(N)ncc2-c2ccc(=O)n(C)n2)cc1 [Example 60]", "f"]
]}

# input Threshold test, melting point < 200 °C: CC(C)n1nc(-c2cnc(N)nc2-c2cccs2)ccc1=O [Example 55]
# output f

# input Threshold test, melting point < 200 °C: CC(C)n1nc(-c2cnc(N)nc2-c2ccc(O)cc2)ccc1=O (hydrate or solvate) [Example 185]
# output f

# input Threshold test, melting point < 200 °C: Cc1cccc(-c2nc(N)ncc2-c2ccc(=O)[nH]n2)c1 [Example 42]
# output f

# input Threshold test, melting point < 200 °C: CCCCCCOc1ccc(-c2nc(N)ncc2-c2ccc(=O)n(C(C)C)n2)cc1 [Example 206]
# output t
